details: human gut metagenome, 24 h, 2 µM; further: call rule not given here
measurementKind: Bacterial Biotransformation

Examples with answers:
- compound: "N#Cc1ccc2[nH]cc(CCCCN3CCN(c4ccc5oc(C(N)=O)cc5c4)CC3)c2c1 [VILAZODONE]"
  Bacterial Biotransformation: "Compound metabolized"
- compound: "CC(=O)OCC(=O)[C@@]1(OC(C)=O)[C@@H](C)C[C@H]2[C@@H]3C[C@H](F)C4=CC(=O)C=C[C@]4(C)[C@@]3(F)[C@@H](O)C[C@@]21C [DIFLORASONE DIACETATE]"
  Bacterial Biotransformation: "Compound metabolized"
- compound: "COc1ccc(/C=C/C(=O)Nc2ccccc2C(=O)O)cc1OC"
  Bacterial Biotransformation: "Compound NOT metabolized"
- compound: "CC(C)(C)NC(=O)[C@H]1CC[C@H]2[C@@H]3CC[C@H]4NC(=O)C=C[C@]4(C)[C@H]3CC[C@]12C [FINASTERIDE]"
  Bacterial Biotransformation: "Compound NOT metabolized"
- compound: "CCOC(=O)[C@H](CCc1ccccc1)N[C@@H](C)C(=O)N1CCC[C@H]1C(=O)O.O=C(O)/C=C\\C(=O)O [ENALAPRIL MALEATE]"
  Bacterial Biotransformation: "Compound NOT metabolized"
- compound: "N=C(N)NC(=O)Cc1c(Cl)cccc1Cl [GUANFACINE]"
  Bacterial Biotransformation: "Compound NOT metabolized"

Prompt: Using known records, supply Bacterial Biotransformation for CCN(C(C)=O)c1cccc(-c2ccnc3c(C#N)cnn23)c1 [ZALEPLON]
Response: Compound NOT metabolized

Prompt: Using known records, supply Bacterial Biotransformation for CCN(CC)CCOC(=O)C1(C2CCCCC2)CCCCC1 [DICYCLOMINE]
Response: Compound NOT metabolized

Prompt: Using known records, supply Bacterial Biotransformation for COc1ccc2c(c1)c(CC(=O)O)c(C)n2C(=O)c1ccc(Cl)cc1 [INDOMETHACIN]
Response: Compound NOT metabolized

Prompt: Using known records, supply Bacterial Biotransformation for O=C1CC2(CCCC2)CC(=O)N1CCCCN1CCN(c2ncccn2)CC1 [BUSPIRONE]
Response: Compound NOT metabolized

Prompt: Using known records, supply Bacterial Biotransformation for Cc1ccccc1C(OCCN(C)C)c1ccccc1.O=C(O)CC(O)(CC(=O)O)C(=O)O (configuration not stated) [ORPHENADRINE CITRATE]
Response: Compound NOT metabolized

Prompt: Using known records, supply Bacterial Biotransformation for COCCCC/C(=N\OCCN)c1ccc(C(F)(F)F)cc1.O=C(O)/C=C\C(=O)O [FLUVOXAMINE MALEATE]
Response: Compound metabolized

Prompt: Using known records, supply Bacterial Biotransformation for CN1CCC[C@@H]1CCO[C@](C)(c1ccccc1)c1ccc(Cl)cc1.O=C(O)/C=C/C(=O)O [CLEMASTINE FUMARATE]
Response: Compound NOT metabolized

Prompt: Using known records, supply Bacterial Biotransformation for "CN1CCC(OC(c2ccccc2)c2ccccc2)CC1"
Response: Compound metabolized

Prompt: Using known records, supply Bacterial Biotransformation for CC1=C(CC(=O)O)c2cc(F)ccc2/C1=C\c1ccc([S+](C)[O-])cc1 (configuration not stated)
Response: Compound NOT metabolized

Prompt: Using known records, supply Bacterial Biotransformation for CC(C)(C)NCC(O)c1cc(Cl)c(N)c(Cl)c1 (configuration not stated) [CLENBUTEROL]
Response: Compound NOT metabolized

Prompt: Using known records, supply Bacterial Biotransformation for CC(=O)Nc1ccc(OC(C)=O)cc1 [DIACETAMATE]
Response: Compound metabolized

Prompt: Using known records, supply Bacterial Biotransformation for CCN(CC)CCNC(=O)c1cc(S(C)(=O)=O)ccc1OC [TIAPRIDE]
Response: Compound NOT metabolized

Prompt: Using known records, supply Bacterial Biotransformation for C[C@]12C=CC(=O)C=C1CC[C@@H]1[C@@H]2C(=O)C[C@@]2(C)[C@H]1CC[C@]2(O)C(=O)CO [PREDNISONE]
Response: Compound NOT metabolized

Prompt: Using known records, supply Bacterial Biotransformation for O=C(NC(Cc1cc(=O)[nH]c2ccccc12)C(=O)O)c1ccc(Cl)cc1 (configuration not stated) [REBAMIPIDE]
Response: Compound NOT metabolized
